test system: anaplastic large cell lymphoma cells (DEL); experiment: In vitro potency (CellTiter-Glo, 96 h) on DEL; type: cell-based; details: 96 h, read-out: DEL IC50
metric: pIC50
Kindly note that pIC50 refers to -log10 of the concentration in mol/L and answer with the value alone.

CC[C@@]1(O)C(=O)OCc2c1cc1n(c2=O)Cc2c-1nc1cc(F)c(C)c(C=C(C)C)c1c2CN; 9.00
CC[C@@]1(O)C(=O)OCc2c1cc1n(c2=O)Cc2c-1nc1cc3c(cc1c2CNCCOC)OCO3; 9.52
CC[C@@]1(O)C(=O)OCc2c1cc1n(c2=O)Cc2c-1nc1cc3c(cc1c2CNCCCN1CCNCC1)OCO3; 8.70
CC[C@@]1(O)C(=O)OCc2c1cc1n(c2=O)Cc2c-1nc1cc(F)c(C)c(C#N)c1c2CN; 9.00
CC[C@@]1(O)C(=O)OCc2c1cc1n(c2=O)Cc2c-1nc1cc3c(cc1c2CNC[C@@H](O)CN1CCCCC1)OCO3; 7.77

Input line: Which pIC50 reading was recorded for the compound CC[C@@]1(O)C(=O)OCc2c1cc1n(c2=O)Cc2c-1nc1cc3c(cc1c2CNC1CCN(C)CC1)OCO3 ?
Output line: 8.70

Input line: Which pIC50 reading was recorded for the compound CC[C@@]1(O)C(=O)OCc2c1cc1n(c2=O)Cc2c-1nc1cc3c(cc1c2CN1CCN(CCN)CC1)OCO3 ?
Output line: 8.52

----------
tested on: anaplastic large cell lymphoma cells (DELBVR); experiment: In vitro potency (CellTiter-Glo, 96 h) on DELBVR; format: cell-based; conditions: 96 h, CPT free drugs; CellTiter-Glo after 96 h exposure; read-out: DELBVR IC50
// values below are reported IC50
Write the value in nM as a bare number.

Here's what some known entries look like.
CC[C@@]1(O)C(=O)OCc2c1cc1n(c2=O)Cc2c-1nc1cc3c(cc1c2Cn1ccnc1)OCO3; 3
C/C=C/c1c(C)c(F)cc2nc3c(c(CN)c12)Cn1c-3cc2c(c1=O)COC(=O)[C@]2(O)CC; 0.3
CC[C@@]1(O)C(=O)OCc2c1cc1n(c2=O)Cc2c-1nc1cc(F)c(C)c(-c3ccccc3)c1c2CN; 5

Input line: Record CC[C@@]1(O)C(=O)OCc2c1cc1n(c2=O)Cc2c-1nc1cc3c(cc1c2CN(C)CCCN)OCO3 : what is its IC50 with anaplastic large cell lymphoma cells (DELBVR)?
Output line: 16

Input line: Record CC[C@@]1(O)C(=O)OCc2c1cc1n(c2=O)Cc2c-1nc1cc(F)c(F)c(F)c1c2CN : what is its IC50 with anaplastic large cell lymphoma cells (DELBVR)?
Output line: 1

Input line: Record CC[C@@]1(O)C(=O)OCc2c1cc1n(c2=O)Cc2c-1nc1cc(F)c(SC)cc1c2CN : what is its IC50 with anaplastic large cell lymphoma cells (DELBVR)?
Output line: 8

Input line: Record CC[C@@]1(O)C(=O)OCc2c1cc1n(c2=O)Cc2c-1nc1ccc3c(c1c2CN)COC3 : what is its IC50 with anaplastic large cell lymphoma cells (DELBVR)?
Output line: 3

Input line: Record CC[C@@]1(O)C(=O)OCc2c1cc1n(c2=O)Cc2c-1nc1cc(F)c(C)c(-c3ccsc3)c1c2CN : what is its IC50 with anaplastic large cell lymphoma cells (DELBVR)?
Output line: 1

Input line: Record CC[C@@]1(O)C(=O)OCc2c1cc1n(c2=O)Cc2c-1nc1cc(F)c(C)c3c1c2[C@@H](NC(=O)CN)CC3 [Compound 13b] : what is its IC50 with anaplastic large cell lymphoma cells (DELBVR)?
Output line: 4
